- method_summary: Pharmacokinetics in beagle dogs
- Format: in vivo
- test_settings: dog, plasma, PO 10 mg/kg, vemurafenib dosed
readout_name: Tmax (h)
Only the number, expressed in h, is required.

# input molecule: CCCS(=O)(=O)Nc1ccc(F)c(C(=O)c2c[nH]c3ncc(-c4ccc(Cl)cc4)cc23)c1F ; wanted: its Tmax
2

---

- method_summary: Stability in human plasma
- Format: in vitro ADME
- test_settings: read-out: Human T1/2
readout_name: half-life at 2 μM (min)
Write the answer as a number in min, unit excluded.

Need half-life at 2 μM, item CCCS(=O)(=O)Nc1ccc(F)c(C(=O)c2cn(C(C)OC(=O)C(C)C)c3ncc(-c4ccc(Cl)cc4)cc23)c1F (stereo not shown)
511

Fill in: half-life at 2 μM of CCCS(=O)(=O)Nc1ccc(F)c(C(=O)c2cn(COC(=O)CC)c3ncc(-c4ccc(Cl)cc4)cc23)c1F is ___
39.6

Query: half-life at 2 μM; subject: CCCS(=O)(=O)Nc1ccc(F)c(C(=O)c2cn(COC(=O)C(C)C)c3ncc(-c4ccc(Cl)cc4)cc23)c1F
113

Item under review: CCCS(=O)(=O)Nc1ccc(F)c(C(=O)c2cn(COC(=O)C(N)C(C)C)c3ncc(-c4ccc(Cl)cc4)cc23)c1F.Cl (stereo not shown) . Reported half-life at 2 μM?
6.08

---

Consider the following molecules; for each one, report its half-life at 2 μM.
- method_summary: Stability in human plasma
- Type: in vitro ADME
- test_settings: read-out: Human T1/2

Tell me the measured half-life at 2 μM of CCCS(=O)(=O)Nc1ccc(F)c(C(=O)c2cn(COC(=O)[C@@H](N)C(C)CC)c3ncc(-c4ccc(Cl)cc4)cc23)c1F.Cl (stereo partly shown) [Ex. 22] , please.
0.113 h

Would you kindly share the measured half-life at 2 μM for CCCS(=O)(=O)Nc1ccc(F)c(C(=O)c2cn(C(OC(=O)CC)C(C)C)c3ncc(-c4ccc(Cl)cc4)cc23)c1F (stereo not shown) [Ex. 11] ?
2.7 h

Sample CCCS(=O)(=O)Nc1ccc(F)c(C(=O)c2cn(COC(=O)OCC)c3ncc(-c4ccc(Cl)cc4)cc23)c1F [Ex. 26] — what was its half-life at 2 μM?
1.36 h

Suppose we examine the molecule CCCS(=O)(=O)Nc1ccc(F)c(C(=O)c2cn(C(C)OC(=O)OCC)c3ncc(-c4ccc(Cl)cc4)cc23)c1F (stereo not shown) [Ex. 28] ; what half-life at 2 μM value has been reported?
0.964 h

Values were extracted from patent US9399639B2.
